STUDY CONDITIONS: in ethanol, 278.15 K
REPORTED ENDPOINT: solubility (mole fraction)
API note: the answer field is a bare number with no unit suffix.

Query string: In one line, give reported solubility (mole fraction) of the entry CC(C)C(=O)Nc1ccc([N+](=O)[O-])c(C(F)(F)F)c1 .
Result string: 0.0365

* * *

STUDY CONDITIONS: in 1,4-dioxane, 323.15 K
REPORTED ENDPOINT: solubility (mole fraction)

Query string: In one line, give reported solubility (mole fraction) of the entry CC(C)C(=O)Nc1ccc([N+](=O)[O-])c(C(F)(F)F)c1 .
Result string: 0.338
